System: Staphylococcus aureus
Assay: Antimicrobial activity against methicillin-susceptible Staphylococcus aureus after 24 hrs by broth microdilution method
Assay type: functional
Would you mind telling me the reported MIC50 of each entry?
Numbers only, in µg/mL.

Example compounds with recorded MIC50:
{"columns": ["Structure smiles string", "MIC50 / µg/mL"],
 "data": [
  ["Cc1onc(-c2ccccc2)c1C(=O)N[C@@H]1C(=O)N2[C@@H]1SC(C)(C)[C@@H]2C(=O)O", 0.125],
  ["COc1cc(O)c(C(=O)[C@@H]2[C@H](CC=C(C)C)C(C)=CC[C@H]2c2ccccc2)c(O)c1", 0.5],
  ["CC(=O)NC[C@H]1CN(c2ccc(N3CCOCC3)c(F)c2)C(=O)O1", 1]
]}

Answer for every listed entry: what is its MIC50? The entries follow.
1. Cc1ccc(C(C)C)c(O)c1
2. CC1(C)S[C@@H]2[C@H](NC(=O)[C@H](N)c3ccccc3)C(=O)N2[C@H]1C(=O)O
3. CC[C@H]1OC(=O)[C@H](C)[C@@H](O[C@H]2C[C@@](C)(OC)[C@@H](O)[C@H](C)O2)[C@H](C)[C@@H](O[C@@H]2O[C@H](C)C[C@H](N(C)C)[C@H]2O)[C@](C)(O)C[C@@H](C)C(=O)[C@H](C)[C@@H](O)[C@]1(C)O

1. 128
2. 32
3. 0.5

Given C[C@H]1COc2c(N3CCN(C)CC3)c(F)cc3c(=O)c(C(=O)O)cn1c23.C[C@H]1COc2c(N3CCN(C)CC3)c(F)cc3c(=O)c(C(=O)O)cn1c23.O , state its recorded MIC50.
0.125
